- targetOrTestSystem: Ba/F3 BCR-ABL1 A337V (Homo sapiens, UniProt P00519+P11274, A337V)
- Construct: BCR (N-terminal fusion partner of the oncoprotein)
- Sequence (P00519 28-1130 A337V limits assumed, one chain of several): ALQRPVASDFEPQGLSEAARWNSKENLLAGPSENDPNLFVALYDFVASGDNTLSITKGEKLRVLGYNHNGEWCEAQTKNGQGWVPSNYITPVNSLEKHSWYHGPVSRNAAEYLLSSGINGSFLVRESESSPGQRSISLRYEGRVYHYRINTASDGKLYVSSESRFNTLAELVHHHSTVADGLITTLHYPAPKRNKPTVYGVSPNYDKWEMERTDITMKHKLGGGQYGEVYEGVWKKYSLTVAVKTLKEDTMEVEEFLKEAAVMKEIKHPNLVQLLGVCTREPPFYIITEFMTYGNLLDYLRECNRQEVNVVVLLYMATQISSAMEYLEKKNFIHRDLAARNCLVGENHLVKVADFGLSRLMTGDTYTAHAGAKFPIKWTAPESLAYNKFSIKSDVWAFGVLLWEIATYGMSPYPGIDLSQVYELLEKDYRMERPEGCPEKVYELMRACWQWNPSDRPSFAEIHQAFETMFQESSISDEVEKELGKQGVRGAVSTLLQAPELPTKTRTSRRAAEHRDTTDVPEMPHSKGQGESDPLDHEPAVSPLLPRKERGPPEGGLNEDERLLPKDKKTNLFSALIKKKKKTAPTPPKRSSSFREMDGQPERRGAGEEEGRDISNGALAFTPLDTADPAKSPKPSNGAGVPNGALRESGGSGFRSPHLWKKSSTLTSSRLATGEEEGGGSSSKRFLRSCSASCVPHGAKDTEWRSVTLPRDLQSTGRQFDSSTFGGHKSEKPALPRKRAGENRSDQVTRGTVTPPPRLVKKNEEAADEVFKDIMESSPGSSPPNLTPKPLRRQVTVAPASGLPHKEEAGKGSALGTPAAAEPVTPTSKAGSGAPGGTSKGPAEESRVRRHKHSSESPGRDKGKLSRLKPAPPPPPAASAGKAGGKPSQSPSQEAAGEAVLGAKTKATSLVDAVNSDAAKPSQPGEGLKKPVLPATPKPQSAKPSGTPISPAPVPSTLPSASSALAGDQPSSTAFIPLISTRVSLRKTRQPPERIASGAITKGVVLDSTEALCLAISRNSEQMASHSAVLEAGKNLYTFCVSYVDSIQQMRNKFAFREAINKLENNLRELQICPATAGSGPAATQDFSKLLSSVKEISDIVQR
- experimentalProtocol: Cell growth inhibitory activity assay (CellTiter-Glo), Ba/F3 BCR-ABL1 A337V cells
- recordedConditions: 72 h, CTG cell viability
Kindly state IC50 for each of the entries shown.

Enter reported IC50 observed with Ba/F3 BCR-ABL1 A337V (Homo sapiens, UniProt P00519+P11274, A337V) for C[C@@H]1COCc2nc3cc(C(=O)Nc4ccc(OC(F)(F)Cl)cc4)cc(-c4cnc5c(c4)C(=O)N(C)C5)c3n21
50 to 1000 nM

What measured IC50 is associated with CCn1cc2c(n1)-c1cc(-c3cc(C(=O)Nc4ccc(OC(F)(F)Cl)cc4)cc4nc5n(c34)[C@H](C)COC5)cnc1C2 on Ba/F3 BCR-ABL1 A337V (Homo sapiens, UniProt P00519+P11274, A337V)?
5 to 50 nM

Entry C[C@@H]1COCc2nc3cc(C(=O)Nc4ccc(OC(F)(F)Cl)cc4)cc(-c4cnc5c(c4)-c4nn(C6CC6)cc4C5)c3n21 , system Ba/F3 BCR-ABL1 A337V (Homo sapiens, UniProt P00519+P11274, A337V): what IC50 was measured?
5 to 50 nM

Param readout= IC50; system= Ba/F3 BCR-ABL1 A337V (Homo sapiens, UniProt P00519+P11274, A337V); entry= [2H]C([2H])([2H])C([2H])(n1cc2c(n1)-c1cc(-c3cc(C(=O)Nc4ccc(OC(F)(F)Cl)cc4)cc4nc5n(c34)[C@H](C)COC5)cnc1C2)C([2H])([2H])[2H] ; returns value.
5 to 50 nM

Record lookup: for Ba/F3 BCR-ABL1 A337V (Homo sapiens, UniProt P00519+P11274, A337V), what IC50 belongs to C[C@@H]1COCc2nc3cc(C(=O)Nc4ccc(OC(F)(F)Cl)cc4)cc(-c4cnc5c(c4)-c4nn(-c6cncnc6)cc4C5)c3n21 ?
50 to 1000 nM

Request: IC50, test system Ba/F3 BCR-ABL1 A337V (Homo sapiens, UniProt P00519+P11274, A337V), entry CC(C)n1cc2c(n1)-c1cc(-c3cc(C(=O)Nc4ccc(OC(F)(F)Cl)cc4)cc4nc5n(c34)[C@H](C)COC5)cnc1C2
5 to 50 nM

Return IC50 measured with Ba/F3 BCR-ABL1 A337V (Homo sapiens, UniProt P00519+P11274, A337V) given this compound: C[C@@H]1COCc2nc3cc(C(=O)Nc4ccc(OC(F)(F)Cl)cc4)cc(-c4cnc5c(c4)-c4nn(S(C)(=O)=O)cc4C5)c3n21
50 to 1000 nM

What IC50 appears in the records for this compound with Ba/F3 BCR-ABL1 A337V (Homo sapiens, UniProt P00519+P11274, A337V)? C[C@@H]1COCc2nc3cc(C(=O)Nc4ccc(OC(F)(F)Cl)cc4)cc(-c4cnccn4)c3n21
50 to 1000 nM

Query for Ba/F3 BCR-ABL1 A337V (Homo sapiens, UniProt P00519+P11274, A337V): what IC50 does the record show for C[C@@H]1COCc2nc3cc(C(=O)Nc4ccc(OC(F)(F)Cl)cc4)cc(-c4cnc5c(c4)-c4c(cnn4-c4nccc(C#N)n4)C5)c3n21 ?
50 to 1000 nM

# returns recorded IC50 (system: Ba/F3 BCR-ABL1 A337V (Homo sapiens, UniProt P00519+P11274, A337V)) for C[C@@H]1COCc2nc3cc(C(=O)Nc4ccc(OC(F)(F)Cl)cc4)cc(-c4cnc5c(c4)-c4nn(-c6cnccn6)cc4C5)c3n21
50 to 1000 nM

Request: IC50, test system Ba/F3 BCR-ABL1 A337V (Homo sapiens, UniProt P00519+P11274, A337V), entry CN1Cc2ncc(-c3cc(C(=O)Nc4ccc(OC(F)(F)Cl)cc4)cc4c3C(C)(C)C(=O)N4)cc2C1=O
> 1000 nM

Hello, I am looking for reported IC50 with Ba/F3 BCR-ABL1 A337V (Homo sapiens, UniProt P00519+P11274, A337V) for C[C@@H]1COCc2nc3cc(C(=O)Nc4ccc(OC(F)(F)Cl)cc4)cc(-c4cnc5c(c4)-c4nn(CC(F)(F)F)cc4C5)c3n21 . Could you help?
5 to 50 nM

Test system Ba/F3 BCR-ABL1 A337V (Homo sapiens, UniProt P00519+P11274, A337V); read-out IC50; what value for [2H]C([2H])([2H])N1Cc2ncc(-c3cc(C(=O)Nc4ccc(OC(F)(F)Cl)cc4)cc4nc5n(c34)[C@H](C)COC5)cc2C1=O ?
50 to 1000 nM

Given the entry C[C@@H]1COCc2nc3cc(C(=O)Nc4ccc(OC(F)(F)Cl)cc4)cc(-c4cnc5c(c4)-c4nn(C6COC6)cc4C5)c3n21 , what IC50 was observed with Ba/F3 BCR-ABL1 A337V (Homo sapiens, UniProt P00519+P11274, A337V)?
50 to 1000 nM

Write down the reported IC50 of C[C@@H]1COCc2nc3cc(C(=O)Nc4ccc(OC(F)(F)Cl)cc4)cc(-c4cnc5c(c4)-c4nn(-c6ccccn6)cc4C5)c3n21 , test system: Ba/F3 BCR-ABL1 A337V (Homo sapiens, UniProt P00519+P11274, A337V).
50 to 1000 nM

Request - read-out IC50 | tested on Ba/F3 BCR-ABL1 A337V (Homo sapiens, UniProt P00519+P11274, A337V) | compound Cc1cc(C)nc(-n2cc3c(n2)-c2cc(-c4cc(C(=O)Nc5ccc(OC(F)(F)Cl)cc5)cc5nc6n(c45)[C@H](C)COC6)cnc2C3)n1
50 to 1000 nM
